Tested on: SK-OV-3 cells
Test protocol: Growth inhibition of ovarian cancer cell line SK-OV-3 (MTT assay, cell survival)
Assay type: cell-based
Recorded conditions: Homo sapiens, drug concentration that results in 50% cell survival, 72 hrs incubation, reported as ranges
Quantity name: CC50

A selection of reference data follows.
Prompt: Given CN[C@@H](C)C(=O)N[C@H](C(=O)N1CC[C@@H]2[C@H]1[C@@H](c1c[nH]c3cc(F)ccc13)CN2C1CCNCC1)C1CCCCC1 , respond with its CC50.
Response: > 10000 nM

Prompt: Given CC[C@H](NC(=O)[C@H](C)NC)C(=O)N1CC[C@@H]2[C@H]1[C@@H](c1c[nH]c3cc(F)ccc13)CN2c1ncccn1 , respond with its CC50.
Response: < 100 nM

Prompt: Given CN[C@@H](C)C(=O)N[C@H](C(=O)N1CC[C@@H]2[C@H]1[C@@H](c1c[nH]c3cc(F)ccc13)CN2c1ncccn1)C1CCCCC1 , respond with its CC50.
Response: < 100 nM

Others:
Prompt: Given CNC(C)C(=O)NC(C(=O)N1CCC2C1CCN2C(=O)C(NC(=O)C(C)NC)C1CCCCC1)C1CCCCC1 (stereo not drawn) , respond with its CC50.
Response: 1000 to 10000 nM

Prompt: Given CC[C@H](NC(=O)[C@H](C)NC)C(=O)N1CC[C@@H]2[C@H]1[C@@H](c1c[nH]c3cc(F)ccc13)CN2C1CCCC1 , respond with its CC50.
Response: 100 to 1000 nM

====

Target desc: XIAP BIR-3 (Homo sapiens)
Construct: 40 nM of the respective IAP BIR3
Test protocol: Fluorescence polarization binding affinity to XIAP BIR-3 (competition with AbuRPF-K(5-Fam)-NH2)
Recorded conditions: 5 nM labeled peptide, 40 nM BIR3, 15 min at RT, pH 7.5; reported as ranges
Protocol: The binding affinities of the compounds are reported as a KD value (μM). […] Following incubation, the polarization values (mP) were measured on a Victor2V (available from PerkinElmer Life Sciences) using a 485 nm excitation filter and a 520 nm emission filter. […]
Quantity name: Kd

A selection of reference data follows.
Prompt: Given C[C@H](N)C(=O)N[C@H](C(=O)N1CC[C@H]2NC[C@H](c3cn(Cc4ccccc4)c4cc(F)ccc34)[C@H]21)C1CCCCC1 , respond with its Kd.
Response: < 100 nM

Prompt: Given CN[C@@H](C)C(=O)N[C@H](C(=O)N1CC[C@@H]2[C@H]1[C@@H](c1c[nH]c3cc(F)ccc13)CN2C(=O)OCc1ccccc1)C1CCCCC1 , respond with its Kd.
Response: < 100 nM

Prompt: Given CN[C@@H](C)C(=O)N[C@H](C(=O)N1CC[C@@H]2[C@H]1[C@@H](c1c[nH]c3cc(F)ccc13)CN2c1ncccn1)C1CCCCC1 , respond with its Kd.
Response: < 100 nM

Prompt: Given CN[C@@H](C)C(=O)N[C@H](C(=O)N1CC[C@@H]2[C@H]1[C@@H](c1c[nH]c3cc(F)ccc13)CN2Cc1ccccc1)C1CCCCC1 , respond with its Kd.
Response: < 100 nM

Prompt: Given CN[C@@H](C)C(=O)N[C@H](C(=O)N1CC[C@@H]2[C@H]1[C@H](c1c[nH]c3cc(F)ccc13)CN2C1CCCC1)[C@@H](C)O , respond with its Kd.
Response: > 10000 nM

Others:
Prompt: Given CN[C@@H](C)C(=O)N[C@H](C(=O)N1CC[C@@H]2[C@H]1[C@@H](c1c[nH]c3cc(F)ccc13)CN2C(C)=O)C(C)(C)C , respond with its Kd.
Response: < 100 nM

Prompt: Given CN[C@@H](C)C(=O)N[C@H](C(=O)N1CC[C@@H]2[C@H]1[C@@H](c1c[nH]c3cc(F)ccc13)CN2C1CCCC1)C1CCCCC1 , respond with its Kd.
Response: 100 to 1000 nM

====

Below is a list of entries, each paired with its recorded pKd value.
Target desc: cIAP-1 BIR-3 (Homo sapiens, UniProt Q13490)
Sequence (Q13490 266-352 limits assumed): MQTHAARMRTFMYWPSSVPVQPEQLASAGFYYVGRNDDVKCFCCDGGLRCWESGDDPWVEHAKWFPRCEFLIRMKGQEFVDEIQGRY
Test protocol: Fluorescence polarization binding affinity to cIAP-1 BIR-3 (competition with AbuRPF-K(5-Fam)-NH2)
Recorded conditions: 5 nM labeled peptide, 40 nM BIR3, 15 min at RT, pH 7.5; reported as ranges; read-out: KD (c-IAP-1 BIR3)
pKd: −log10 of the molar value.

Prompt: Given CN[C@@H](C)C(=O)N[C@H](C(=O)N1CC[C@@H]2[C@H]1[C@@H](c1c[nH]c3cc(F)ccc13)CN2C(C)=O)[C@@H](C)OC , respond with its pKd.
Response: > 7.00

Prompt: Given CN[C@@H](C)C(=O)N[C@H](C(=O)N1CC[C@@H]2[C@H]1[C@@H](c1c[nH]c3cc(F)ccc13)CN2S(C)(=O)=O)C1CCCCC1 , respond with its pKd.
Response: > 7.00

Prompt: Given CN[C@@H](C)C(=O)N[C@@H](COC)C(=O)N1CC[C@@H]2[C@H]1[C@@H](c1c[nH]c3cc(F)ccc13)CN2Cc1ccccc1 , respond with its pKd.
Response: 6.00 to 7.00

Others:
Prompt: Given CN[C@@H](C)C(=O)N[C@H](C(=O)N1CC[C@@H]2[C@H]1[C@@H](c1c[nH]c3cc(F)ccc13)CN2S(C)(=O)=O)C(C)(C)C , respond with its pKd.
Response: > 7.00

Prompt: Given CC[C@H](NC(=O)[C@H](C)NC)C(=O)N1CC[C@@H]2[C@H]1[C@@H](c1c[nH]c3cc(F)ccc13)CN2c1ncccn1 , respond with its pKd.
Response: > 7.00

Prompt: Given CN[C@@H](C)C(=O)N[C@H](C(=O)N1CC[C@@H]2[C@H]1[C@@H](c1c[nH]c3cc(F)ccc13)CN2C(=O)C(F)(F)F)C1CCCCC1 , respond with its pKd.
Response: > 7.00

====

Below is a list of entries, each paired with its recorded Kd value.
Target desc: XIAP BIR-3 (Homo sapiens, UniProt P98170)
Construct: 40 nM of the respective IAP BIR3
Sequence (P98170 241-356 limits assumed): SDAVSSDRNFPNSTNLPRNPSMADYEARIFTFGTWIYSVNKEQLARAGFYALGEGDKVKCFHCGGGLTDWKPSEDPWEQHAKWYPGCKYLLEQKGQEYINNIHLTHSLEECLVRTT
Test protocol: Fluorescence polarization binding affinity to XIAP BIR-3 (competition with AbuRPF-K(5-Fam)-NH2)
Recorded conditions: 5 nM labeled peptide, 40 nM BIR3, 15 min at RT, pH 7.5; reported as ranges

A selection of reference data follows.
Prompt: Look up and report Kd, with XIAP BIR-3 (Homo sapiens, UniProt P98170) as system, for CC(=O)N1C[C@H](c2c[nH]c3cc(F)ccc23)[C@@H]2[C@H]1CCN2C(=O)[C@@H](NC(=O)[C@H](C)N)C1CCCCC1
Response: < 100 nM

Prompt: Look up and report Kd, with XIAP BIR-3 (Homo sapiens, UniProt P98170) as system, for CN[C@@H](C)C(=O)N[C@H](C(=O)N1CC[C@@H]2[C@H]1[C@@H](c1c[nH]c3cc(F)ccc13)CN2c1ncccn1)C(C)C
Response: < 100 nM

Prompt: Look up and report Kd, with XIAP BIR-3 (Homo sapiens, UniProt P98170) as system, for CC[C@H](NC(=O)[C@H](C)NC)C(=O)N1CC[C@H]2NC[C@H](c3c[nH]c4cc(F)ccc34)[C@H]21
Response: < 100 nM

Prompt: Look up and report Kd, with XIAP BIR-3 (Homo sapiens, UniProt P98170) as system, for CN[C@@H](C)C(=O)N[C@H](C(=O)N1CC[C@@H]2[C@H]1[C@@H](c1c[nH]c3cc(F)ccc13)CN2S(C)(=O)=O)C(C)C
Response: < 100 nM

Others:
Prompt: Look up and report Kd, with XIAP BIR-3 (Homo sapiens, UniProt P98170) as system, for CN[C@@H](C)C(=O)N[C@H](C(=O)N1CC[C@@H]2[C@H]1[C@@H](c1c[nH]c3cc(F)ccc13)CN2Cc1ccccc1)C(C)(C)C
Response: < 100 nM

Prompt: Look up and report Kd, with XIAP BIR-3 (Homo sapiens, UniProt P98170) as system, for CN[C@@H](C)C(=O)N[C@@H](COC)C(=O)N1CC[C@@H]2[C@H]1[C@@H](c1c[nH]c3cc(F)ccc13)CN2Cc1ccccc1
Response: 1000 to 10000 nM

====

Test system: SK-OV-3 cells
Test protocol: Growth inhibition of ovarian cancer cell line SK-OV-3 (MTT assay, cell survival)
Format: cell-based
Recorded conditions: Homo sapiens, drug concentration that results in 50% cell survival, 72 hrs incubation, reported as ranges
Procedure: Compounds of the invention also were tested for their ability to inhibit the growth of an ovarian cancer cell line, SK-OV-3. […] At the end of the three (3) hour incubation period, 50 microliters of DMSO is added to each well to dissolve cells and the optical density (OD) of the wells is measured with a microplate reader (Victor^2 1420, Wallac, Finland) at 535 nm. Cell survival (CS) was calculated using the following equation: CS=(OD treated well/mean OD control wells)×100%. […]
Quantity name: CC50

A selection of reference data follows.
Prompt: Given CN[C@@H](C)C(=O)N[C@H](C(=O)N1CC[C@@H]2[C@H]1[C@@H](c1c[nH]c3cc(F)ccc13)CN2c1ncccn1)C(C)(C)C , respond with its CC50.
Response: < 0.1 µM

Prompt: Given CC[C@H](NC(=O)[C@H](C)NC)C(=O)N1CC[C@@H]2[C@H]1[C@H](c1c[nH]c3cc(F)ccc13)CN2S(C)(=O)=O , respond with its CC50.
Response: > 10 µM

Prompt: Given CN[C@@H](C)C(=O)N[C@H](C(=O)N1CC[C@@H]2[C@H]1[C@H](c1c[nH]c3cc(F)ccc13)CN2C1CCCC1)C(C)C , respond with its CC50.
Response: 1 to 10 µM

Prompt: Given CN[C@@H](C)C(=O)N[C@H](C(=O)N1CC[C@@H]2[C@H]1[C@@H](c1c[nH]c3ccc(F)cc13)CN2C(C)=O)C(C)C , respond with its CC50.
Response: < 0.1 µM

Prompt: Given CN[C@@H](C)C(=O)N[C@H](C(=O)N1CC[C@@H]2[C@H]1[C@@H](c1c[nH]c3ccccc13)CN2C(C)C)C1CCCCC1 , respond with its CC50.
Response: 0.1 to 1 µM

Prompt: Given CN[C@@H](C)C(=O)N[C@@H](COC)C(=O)N1CC[C@@H]2[C@H]1[C@@H](c1c[nH]c3cc(F)ccc13)CN2Cc1ccccc1 , respond with its CC50.
Response: 1 to 10 µM

Prompt: Given CN[C@@H](C)C(=O)N[C@H](C(=O)N1CC[C@@H]2[C@H]1[C@H](c1c[nH]c3cc(F)ccc13)CN2C(C)=O)C1CCCCC1 , respond with its CC50.
Response: 1 to 10 µM

Prompt: Given CN[C@@H](C)C(=O)N[C@@H](CO)C(=O)N1CC[C@@H]2[C@H]1[C@@H](c1c[nH]c3cc(F)ccc13)CN2c1ncccn1 , respond with its CC50.
Response: < 0.1 µM

Prompt: Given CN[C@@H](C)C(=O)N[C@H](C(=O)N1CC[C@@H]2[C@H]1[C@@H](c1c[nH]c3cc(F)ccc13)CN2C(=O)c1ccccc1)C1CCCCC1 , respond with its CC50.
Response: < 0.1 µM

Prompt: Given CN[C@@H](C)C(=O)N[C@H](C(=O)N1CC[C@@H]2[C@H]1[C@@H](c1c[nH]c3cc(F)ccc13)CN2c1nccc(Cl)n1)C1CCCCC1 , respond with its CC50.
Response: < 0.1 µM

Attention now shifts to the item below.
Prompt: Given CN[C@@H](C)C(=O)N[C@H](C(=O)N1CC[C@@H]2[C@H]1[C@H](c1c[nH]c3cc(F)ccc13)CN2S(C)(=O)=O)[C@@H](C)OC , respond with its CC50.
Response: > 10 µM

FYI, the data here is from patent US8399683B2.
